Measured values drawn from paper PMC7954794 for this set.

tested on: Abp1 PPIs; assay: DHFR-PCA of Abp1 SH3-swapped baits (Fig. 2B-D, S2C, S2F); assay type: cell-based, Saccharomyces cerevisiae; details: distance to Abp1 bait with MYO5 SH3; sheet Fig2C;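 further: Euclidean distance between DHFR-PCA score profiles of the baits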
Measured Protein-protein interaction distance between Abp1 SH3-swapped baits, to MYO5, listed per entry.
observable: Protein-protein interaction distance between Abp1 SH3-swapped baits, to MYO5

molecule	value.measured
PIN3 (protein, UniProt Q06449 2-215, looked up) [PSI+] inducibility protein 3: SASLINRSLTNIRTELDFLKGSNVISNDVYDQINKSLPAKWDPANAPRNASPASLEYVEALYQFDPQQDGDLGLKPGDKVQLLEKLSPEWYKGSCNGRTGIFPANYVKPAFSGSNGPSNLPPPPQYKAQELQQIPTQNSAASSYQQQPFPPPSTNYYQQPQQQPQQAPPPQQQQQQQQHQSSHSHLKSFGSKLGNAAIFGAGASIGSDIVNNIF	6.67
SHO1 (protein, UniProt P40073 1-367, looked up) High osmolarity signaling …: MSISSKIRPTPRKPSRMATDHSFKMKKFYADPFAISSISLAIVSWVIAIGGSISSASTNESFPRFTWWGIVYQFLIICSLMLFYCFDLVDHYRIFITTSIAVAFVYNTNSATNLVYADGPKKAAASAGVILLSIINLIWILYYGGDNASPTNRWIDSFSIKGIRPSPLENSLHRARRRGNRNTTPYQNNVYNDAIRDSGYATQFDGYPQQQPSHTNYVSSTALAGFENTQPNTSEAVNLHLNTLQQRINSASNAKETNDNSNNQTNTNIGNTFDTDFSNGNTETTMGDTLGLYSDIGDDNFIYKAKALYPYDADDDDAYEISFEQNEILQVSDIEGRWWKARRANGETGIIPSNYVQLIDGPEEMHR	10.26
PEX13 (protein, UniProt P80667 1-386, looked up) Peroxisomal membrane protein …: MSSTAVPRPKPWETSASLEEPQRNAQSLSAMMTSNQQDSRPTEESNNSNSASESAPEVLPRPAALNSSGTYGESNTIPGIYGNSNYGIPYDNNPYSMNSIYGNSIGRYGYGGSYYGNNYGSFYGGGYGAGAGYGMNNGSGLGESTKATFQLIESLIGAVTGFAQMLESTYMATHNSFFTMISVAEQFGNLKEMLGSFFGIFAIMKFLKKILYRATKGRLGIPPKNFAESEGSKNKLIEDFQKFNDSGTINSNEKATRRKISWKPLLFFLMAVFGFPYLLNKFITKLQTSGTIRASQGNGSEPIDPSKLEFARALYDFVPENPEMEVALKKGDLMAILSKKDPLGRDSDWWKVRTKNGNIGYIPYNYIEIIKRRKKIEHVDDETRTH	7.969
LSB1 (protein, UniProt P53281 2-241, looked up) LAS seventeen-binding protein …: SASLVNRSLKNIRNELEFLKESNVISGDIFELINSKLPEKWDGNQRSPQNADTEEYVEALYDFEAQQDGDLSLKTGDKIQVLEKISPDWYRGKSNNKIGIFPANYVKPAFTRSASPKSAEAASSSTVSRPSVPPPSYEPAASQYPSQQVSAPYAPPAGYMQAPPPQQQQAPLPYPPPFTNYYQQPQQQYAPPSQQAPVEAQPQQSSGASSAFKSFGSKLGNAAIFGAGSAIGSDIVNSIF	7.822
